biological target: Hck (UniProt P08631); assay: phosphorylation enrichment, bacterial display (enrichment ratio); higher = better substrate or ligand; peptides without Tyr show the background;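 also: 11-residue human phosphosite peptides and single-mutation variants displayed on the E. coli surface, counted by deep sequencing, each peptide's frequency after selection divided by its frequency in the unselected input library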;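 also: frequency after pTyr selection over input frequency; kinase dosed for 20-30% of maximal phosphorylation in three min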
Sequence (P08631 whole entry, looked up): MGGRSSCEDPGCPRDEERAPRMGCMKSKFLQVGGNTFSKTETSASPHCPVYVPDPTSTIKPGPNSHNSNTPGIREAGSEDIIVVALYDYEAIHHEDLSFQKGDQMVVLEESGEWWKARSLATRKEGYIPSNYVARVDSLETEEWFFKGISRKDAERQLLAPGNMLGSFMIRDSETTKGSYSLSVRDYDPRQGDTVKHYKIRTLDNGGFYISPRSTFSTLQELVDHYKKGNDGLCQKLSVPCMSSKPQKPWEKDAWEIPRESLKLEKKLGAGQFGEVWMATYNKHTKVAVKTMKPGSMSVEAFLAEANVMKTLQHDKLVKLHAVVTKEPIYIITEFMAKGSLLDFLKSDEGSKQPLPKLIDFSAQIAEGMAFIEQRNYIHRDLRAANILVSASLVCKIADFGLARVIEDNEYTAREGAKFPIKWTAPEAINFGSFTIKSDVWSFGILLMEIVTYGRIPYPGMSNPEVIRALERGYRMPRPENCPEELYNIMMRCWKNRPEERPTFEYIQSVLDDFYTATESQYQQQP
Observable: phosphorylation enrichment
Numbers only.

Sample records with phosphorylation enrichment:
{"Residue Codes": "AFHGEYIPTVF [RAC2_Y32_P29H]", "Assay Target": "Hck (UniProt P08631)", "Observable": "phosphorylation enrichment", "Measured Value": 0.412}
{"Residue Codes": "ESLRSYDVMDV [KCNQ2_Y562_P561S]", "Assay Target": "Hck (UniProt P08631)", "Observable": "phosphorylation enrichment", "Measured Value": 0.616}
{"Residue Codes": "MALDRYVAICK [OR2B11_Y127]", "Assay Target": "Hck (UniProt P08631)", "Observable": "phosphorylation enrichment", "Measured Value": 0.51}

Provide each entry's phosphorylation enrichment from the list below.
1. YGPPQYNMQYS [ERBB2IP_Y977_I979M]
2. YGAHNYHPLPV [OAT_Y55]
3. SCTFTCLLGDR [ETHE1_Y38_Y38C]
4. LAARYYNWVSF [FLT4_Y1231]
5. ETKENYGKTLK [CHL1_Y291]
6. RLLRGYNQSAF [HLA-C_Y137_D138N_YF]
7. IMAYFYMCDRA [CASD1_Y382]

### Response
[0.746, 1.28, 0.414, 0.64, 0.498, 0.402, 0.401]

Provide each entry's phosphorylation enrichment from the list below.
1. EKQVAYCPSGK [ROS1_Y2323]
2. EPSVPYRGMVF [GLI3_Y104_T107M]

### Response
0.442
0.376

Provide each entry's phosphorylation enrichment from the list below.
1. QELRRYLKSSV [MICA_Y194_G198S]
2. RLAQRYLIWEC [SCN5A_Y694]
3. KWKQKYEESQS [MYH6_Y1462_E1457K]

### Response
0.653
0.679
0.531

----------
test system: Fer (mouse); assay: phosphorylation enrichment, bacterial display (enrichment ratio); higher = better substrate or ligand; peptides without Tyr show the background
Observable: phosphorylation enrichment
Numbers only.

Provide each entry's phosphorylation enrichment from the list below.
1. RELSWYRGRRP [HESX1_Y106]
2. AFHGEYIPTVF [RAC2_Y32_P29H]
3. GPIEVYLCPEE [E2F3_Y349]
4. ALERPYTSKHS [NANS_Y71]
5. KLNNEYLELNY [MME_Y497]
6. GLAELYEFQKK [CKAP5_Y1854_K1857Q_YF]
7. HEHKGYNANFC [TGFB2_Y341_P338H]

### Response
0.693
0.391
0.458
0.353
0.417
0.656
0.698

Provide each entry's phosphorylation enrichment from the list below.
1. WRPFGYPCRRR [BCS1L_Y181_R183C]
2. SGDVQYRSSVR [FREM2_Y2158_T2153S]
3. VEGISYDFIPT [CBS_Y308_G307S]
4. FLTQHYDAKPQ [ANG_Y38]
5. MCDSHYLESRS [CLK1_Y56]

### Response
0.458
0.377
0.96
0.658
0.473

----------
molecular target: EPHB2 (UniProt P29323); experiment: phosphorylation enrichment, bacterial display (enrichment ratio); higher = better substrate or ligand; peptides without Tyr show the background
Sequence (P29323 whole entry, looked up): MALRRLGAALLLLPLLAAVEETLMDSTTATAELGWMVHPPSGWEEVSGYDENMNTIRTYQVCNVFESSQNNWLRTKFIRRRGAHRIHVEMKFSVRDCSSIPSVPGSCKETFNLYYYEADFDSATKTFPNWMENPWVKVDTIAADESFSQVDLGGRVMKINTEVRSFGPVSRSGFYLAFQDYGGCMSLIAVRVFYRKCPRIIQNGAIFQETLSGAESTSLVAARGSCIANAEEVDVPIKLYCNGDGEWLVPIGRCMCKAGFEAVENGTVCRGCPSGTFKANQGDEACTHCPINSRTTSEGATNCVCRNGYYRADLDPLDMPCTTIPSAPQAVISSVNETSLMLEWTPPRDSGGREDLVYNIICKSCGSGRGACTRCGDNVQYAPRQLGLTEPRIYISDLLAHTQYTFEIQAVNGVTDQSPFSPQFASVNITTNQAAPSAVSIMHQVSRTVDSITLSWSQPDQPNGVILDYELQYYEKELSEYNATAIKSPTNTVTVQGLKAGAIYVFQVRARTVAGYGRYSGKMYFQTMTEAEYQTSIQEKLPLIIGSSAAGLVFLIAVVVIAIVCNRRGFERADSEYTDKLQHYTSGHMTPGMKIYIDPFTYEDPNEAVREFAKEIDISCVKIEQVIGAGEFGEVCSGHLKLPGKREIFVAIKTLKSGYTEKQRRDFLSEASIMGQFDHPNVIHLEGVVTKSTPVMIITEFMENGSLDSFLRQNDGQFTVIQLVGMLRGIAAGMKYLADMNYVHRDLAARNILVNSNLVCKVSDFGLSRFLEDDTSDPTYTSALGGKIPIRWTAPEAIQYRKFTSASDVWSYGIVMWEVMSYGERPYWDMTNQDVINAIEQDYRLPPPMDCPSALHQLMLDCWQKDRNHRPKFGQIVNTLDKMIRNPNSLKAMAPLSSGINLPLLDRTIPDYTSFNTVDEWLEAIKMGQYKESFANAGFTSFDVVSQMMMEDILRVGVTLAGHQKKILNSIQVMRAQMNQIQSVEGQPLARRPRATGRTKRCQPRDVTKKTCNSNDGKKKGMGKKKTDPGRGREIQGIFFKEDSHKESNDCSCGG
Observable: phosphorylation enrichment
One number for each entry.

Sample records with phosphorylation enrichment:
{"Residue Codes": "HGVSSYDTIIS [LDLR_Y465_V468I]", "Observable": "phosphorylation enrichment", "Measured Value": 0.819}
{"Residue Codes": "VVQGIYGYHHH [UFSP2_Y285_Y290H]", "Observable": "phosphorylation enrichment", "Measured Value": 2.92}
{"Residue Codes": "ERIEFYELDKK [PMM2_Y145]", "Observable": "phosphorylation enrichment", "Measured Value": 0.554}
{"Residue Codes": "LWPIWYSCHRP [MRGPRX1_Y130_R131S]", "Observable": "phosphorylation enrichment", "Measured Value": 0.694}
{"Residue Codes": "VQSASYLNDCL [MCM3AP_Y864_A867D]", "Observable": "phosphorylation enrichment", "Measured Value": 0.602}
{"Residue Codes": "RKLVDYDSARH [BIN1_Y150]", "Observable": "phosphorylation enrichment", "Measured Value": 0.481}

Provide each entry's phosphorylation enrichment from the list below.
1. QPSPSYDSSRG [TCF12_Y70]
2. GDEEDYFEIPG [EGFR_opt_F_2015]
3. KNGSNYVVKGN [KIT_Y823_D820G]

### Response
[0.626, 0.723, 0.38]

----------
Provide the recorded phosphorylation enrichment for the entries that follow.
target: Fyn (UniProt P06241); assay: phosphorylation enrichment, bacterial display (enrichment ratio); higher = better substrate or ligand; peptides without Tyr show the background
Sequence (P06241 whole entry, looked up): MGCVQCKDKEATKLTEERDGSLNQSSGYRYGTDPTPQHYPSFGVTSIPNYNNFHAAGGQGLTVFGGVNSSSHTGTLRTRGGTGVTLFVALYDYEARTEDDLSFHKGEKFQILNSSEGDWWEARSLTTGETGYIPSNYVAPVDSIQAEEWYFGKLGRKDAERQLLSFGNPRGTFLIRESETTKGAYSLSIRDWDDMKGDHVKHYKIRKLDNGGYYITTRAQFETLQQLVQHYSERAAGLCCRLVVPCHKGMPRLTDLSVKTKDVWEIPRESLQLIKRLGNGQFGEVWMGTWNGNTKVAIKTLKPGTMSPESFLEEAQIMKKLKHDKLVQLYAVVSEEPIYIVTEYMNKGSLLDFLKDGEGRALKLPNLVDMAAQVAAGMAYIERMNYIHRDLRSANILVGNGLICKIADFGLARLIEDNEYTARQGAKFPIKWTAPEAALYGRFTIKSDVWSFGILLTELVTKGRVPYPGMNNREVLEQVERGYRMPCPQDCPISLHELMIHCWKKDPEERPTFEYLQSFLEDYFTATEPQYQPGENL
Answers are plain numbers.

Sample records with phosphorylation enrichment:
{"Residue Codes": "RSIGEYDVLRG [PRKDC_Y2936]", "phosphorylation enrichment": 0.671}
{"Residue Codes": "LEFGDYHPLKP [VPS35L_Y32]", "phosphorylation enrichment": 0.696}
{"Residue Codes": "RHTRSYDYTEG [FGF7_Y56_M59T]", "phosphorylation enrichment": 0.635}
{"Residue Codes": "IMAYFYMCDRA [CASD1_Y382]", "phosphorylation enrichment": 0.421}
{"Residue Codes": "RRIEKYVDQGK [IRAK3_Y61_H57R]", "phosphorylation enrichment": 0.516}
{"Residue Codes": "KPMDTYYDSTR [DYNC2H1_Y2230]", "phosphorylation enrichment": 0.543}

Provide each entry's phosphorylation enrichment from the list below.
1. MHRRQYELLGG [GNAS_Y391_L388R]
2. QDTSRYTVCNL [BIRC3_Y245_S248C]
3. EDKFMYFEFPQ [PTEN_Y240]
4. SVTCTYSAALN [TP53_Y126_P128A]

### Response
1: 0.371; 2: 0.546; 3: 1.32; 4: 0.657

Provide each entry's phosphorylation enrichment from the list below.
1. ADRSCYDLSCH [GARS1_Y467]
2. IVFTSYVLTIL [TAS2R16_Y239_F240V]
3. TMKSHYMELFD [BBS2_Y644_R643H_YF]
4. TFYQMYDKGLV [IARS2_Y231]

### Response
[0.604, 0.667, 0.51, 3.3]

----------
target: EPHB2 (UniProt P29323); experiment: phosphorylation enrichment, bacterial display (enrichment ratio); higher = better substrate or ligand; peptides without Tyr show the background
Values of phosphorylation enrichment greater than or equal to 0.5 map to met; values below map to not met.

Consider the following illustrative entries.
{"Residue Codes": "HSDYQYSQRSQ [PKP2_Y168]", "Assay Target": "EPHB2 (UniProt P29323)", "Cat": "met"}
{"Residue Codes": "QGRQTYLPQPA [DDR2_Y813]", "Assay Target": "EPHB2 (UniProt P29323)", "Cat": "not met"}

# next sequence below
### Prompt Could you tell me if the measured phosphorylation enrichment of HSHTRYERNIE [F2_Y434_R431H] reaches 0.5 or more?
### Response not met

----------
tested on: c-Src; experiment: phosphorylation enrichment, bacterial display (enrichment ratio); higher = better substrate or ligand; peptides without Tyr show the background
Provide the recorded phosphorylation enrichment for the entries that follow.

Sample records with phosphorylation enrichment:
{"Residue Codes": "DAPVVYLGSFG [PRAG1_Y132_R137G]", "Assay Target": "c-Src", "Measured Value": 0.507}
{"Residue Codes": "KMKGEYYRYLA [YWHAG_Y130_D129E]", "Assay Target": "c-Src", "Measured Value": 1.07}
{"Residue Codes": "EYYENYIEELK [PARP4_Y218_F215Y]", "Assay Target": "c-Src", "Measured Value": 1.01}
{"Residue Codes": "IKRIDYEFVEM [ADA_Y84_A83D]", "Assay Target": "c-Src", "Measured Value": 0.404}
{"Residue Codes": "QPSPSYDSSRG [TCF12_Y70]", "Assay Target": "c-Src", "Measured Value": 0.482}

Proceeding to the next sequence to report its phosphorylation enrichment.
The measured phosphorylation enrichment associated with FQLENCCNGGG [INS_Y108_Y108C_YF] reads 0.467

----------
test system: AncSZ; experiment: phosphorylation enrichment, bacterial display (enrichment ratio); higher = better substrate or ligand; peptides without Tyr show the background
Observable: phosphorylation enrichment
Give bare numbers.

Sample records with phosphorylation enrichment:
{"Residue Codes": "CKPGFYNLKEK [LAMA1_Y490]", "phosphorylation enrichment": 0.693}
{"Residue Codes": "DNLSNYVFQGQ [GRIN2A_Y978_N976S]", "phosphorylation enrichment": 0.71}
{"Residue Codes": "FGLPRYRWLTH [TSPAN12_Y143_YF]", "phosphorylation enrichment": 1.01}

Proceeding to the next sequence to report its phosphorylation enrichment.
The measured phosphorylation enrichment associated with IWGKKYPTCNS [PTPRZ1_Y53_N48I] reads 0.697
